Assayed System: T1, human GIP receptor (human, UniProt P48546 22-466)
T1 sequence (looked up): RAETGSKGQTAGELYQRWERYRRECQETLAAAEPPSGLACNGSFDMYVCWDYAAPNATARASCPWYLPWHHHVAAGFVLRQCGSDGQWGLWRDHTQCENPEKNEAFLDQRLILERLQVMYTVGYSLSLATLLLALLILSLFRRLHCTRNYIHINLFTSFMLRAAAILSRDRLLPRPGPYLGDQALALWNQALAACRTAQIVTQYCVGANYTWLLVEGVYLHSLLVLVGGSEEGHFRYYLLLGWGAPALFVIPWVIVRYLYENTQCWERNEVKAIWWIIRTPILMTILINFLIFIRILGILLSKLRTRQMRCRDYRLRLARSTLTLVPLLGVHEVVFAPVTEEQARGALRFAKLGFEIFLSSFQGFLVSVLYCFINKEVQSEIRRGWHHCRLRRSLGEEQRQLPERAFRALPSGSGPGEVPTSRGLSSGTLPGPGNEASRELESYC
Experimental Details: cell-based or functional assay
Starred links: 1 amine or outer side, 2 acyl side, 3 side chain; linkers in the order of their positions; H or OH if unused. Non-standard residues stand in square brackets, D forms with d. Groups on a side chain read outwards from the residue. No end group written: not given here. *: point of attachment. C20 diacid = O=C(O)CCCCCCCCCCCCCCCCCCC(=O)*; γGlu = O=C(O)[C@H](CCC(=O)[*:2])N[*:1]; AEEA = NCCOCCOCC(=O)O; Aib = CC(C)(N)C(=O)O
Reported Metric: EC50, CreLuc assay, 100% hP (nM)
# output: bare number, implied unit nM

Could you tell me which EC50, CreLuc assay, 100% hP is on file for YXEGTFTSDYSIXLEKQAQXAFVEWLIKGGPSSGQSLRHYYNWLTRQRY (Aib at 2, 13, 20; K28 side chain: C20DA-gGlu-gGlu-gGlu-gGlu-gGlu-gGlu-eLys; C-terminal NH2) [Compound 84] ?
1.43

Would you kindly repeat that for YXEGTFTSDYSIXLEKQAQXAFVEWLIKGGPSSGASLRHYYNLXTRQRY (Aib at 2, 13, 20, 44; K28 side chain: C20DA-gGlu-gGlu-gGlu-gGlu-gGlu-gGlu-eLys; C-terminal NH2) [Compound 79] ?
1.86

Would you kindly repeat that for YXEGTFTSDYSIXLEKQAQXAFVEWLIKGGPSSGASLRHYLNLXTRQRY (Aib at 2, 13, 20, 44; K28 side chain: C20DA-gGlu-gGlu-gGlu-gGlu-gGlu-gGlu-eLys; C-terminal NH2) [Compound 17] ?
2.23

Would you kindly repeat that for YXEGTFTSDYSIXLEKQAQXAFVQWLIKGGPESPASLRHYYNWLTRQRY (Aib at 2, 13, 20; K28 side chain: C20DA-gGlu-gGlu-gGlu-gGlu-gGlu; C-terminal NH2) [Compound 11] ?
2.54

Would you kindly repeat that for YXEGTFTSDYSIXLEKQAQXAFVEWLIKGGPRYYASLRHYYNWLTRQRY (Aib at 2, 13, 20; K28 side chain: C20DA-gGlu-gGlu-gGlu-gGlu-gGlu-gGlu-eLys; C-terminal NH2) [Compound 62] ?
5.35

Would you kindly repeat that for Y[Aib]EGTFTSDYSI[Aib]LEKQAQ[Aib]AFVQWLIKGGPESGASLRHYYNWLTRQRY-NH2 (not fully specified (residue 28); also: TFA salt) [Compound 55] ?
0.82

Would you kindly repeat that for YXEGTFTSDYSIXLEKQAEXAFVQWLIKGGPSSGASLRHYYNWLTRQRY (Aib at 2, 13, 20; K28 side chain: C18DA-gGlu-gGlu-gGlu-gGlu-gGlu-gGlu-eLys; C-terminal NH2) [Compound 51] ?
1.37

Would you kindly repeat that for YXEGTFTSDYSIXLEKQAQXAFVEWLIKGGPSEYVSIRHYYNWLTRQRY (Aib at 2, 13, 20; K28 side chain: C20DA-gGlu-gGlu-gGlu-gGlu-gGlu-gGlu-eLys; C-terminal NH2) [Compound 42] ?
1.34

Would you kindly repeat that for Y[Aib]EGTFTSDYSI[Aib]LEKQAQ[Aib]AFVQWLIK([AEEA-AEEA-γGlu-γGlu-γGlu-γGlu-C20 diacid])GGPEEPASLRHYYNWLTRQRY-NH2 (also: TFA salt) [Compound 77] ?
2.16

Would you kindly repeat that for YXEGTFTSDYSIXLEKQAQXAFVQWLIKGGPESGASLRHYYNWLTRQRY (Aib at 2, 13, 20; K28 side chain: C18DA-gGlu-gGlu-gGlu-gGlu-gGlu; C-terminal NH2) [Compound 53] ?
1.38

Would you kindly repeat that for YXEGTFTSDYSIXLEXKAQXEFVEWLIKGGPSSGASLRHYYNWLTRQRY (Aib at 2, 13, 16, 20; K28 side chain: C20DA-gGlu-gGlu-gGlu-gGlu-gGlu-gGlu-eLys; C-terminal NH2) [Compound 24] ?
17.7

The measured values listed here are drawn from patent US20240247080A1.
